Below, each entry is listed with its recorded pIC50.
tested on: PLC-PRF-5 cells; test: Inhibition of proliferation of PLC-PRF-5 cells (ATPlite); assay type: cell-based; details: Homo sapiens, PLC-PRF-5, PLC-PRF-5 cells; read-out: PLC-PRF-5 cell proliferation IC50
By convention, pIC50 is the negative base-10 log of a molar concentration.

These recorded examples may help you get a feel for the data.
O=C(Nc1cccc(C2CC2)c1)Nc1ccc(Oc2ccnc(NC(=O)C3CC3)c2)c(F)c1 [Exe. 057] : 6.60
O=C(Nc1cccc(C(F)(F)F)c1)Nc1ccc(Oc2ccnc(NC(=O)C3CC3)c2)cc1F [Exe. 211] : 6.72
O=C(Nc1ccc(F)c(Oc2cc(NC(=O)C3CC3)ncn2)c1)Nc1ccc(Cl)c(C(F)(F)F)c1 [Exe. 013] : 4.79
O=C(Nc1ccc(Oc2ccnc(NC(=O)C3CC3)c2)c(F)c1)Nc1ccc(Cl)c(C(F)(F)F)c1 [Exe. 022] : 5.77
CCOC(=O)C(C)(C)CNc1cc(NC(=O)Nc2ccc(Oc3ccnc(NC(=O)C4CC4)c3)c(F)c2)cc(C(F)(F)F)c1 [Exe. 050] : 5.65
Cc1cc(NC(=O)Nc2cc(C(C)(F)F)ccc2F)ccc1Oc1ccnc(NC(=O)C2CC2)c1 [Exe. 234] : 7.20

Could you tell me which pIC50 is on file for O=C(Nc1cccc(C(F)(F)F)c1)Nc1ccc(Oc2ccnc(NC(=O)C3CC3)c2)c(F)c1 [Exe. 061] ? 6.68

Ok, now O=C(Nc1cc(-c2cn[nH]c2)cc(C(F)(F)F)c1)Nc1ccc(Oc2ccnc(NC(=O)C3CC3)c2)c(F)c1 [Exe. 238] 5.65
